Where do these numbers come from? They come from ChEMBL document CHEMBL3864163.

Record form. Attribute: log10 of IC50. Fill in for each entry.
# study.system: C-X-C chemokine receptor type 3 (Homo sapiens, UniProt P49682)
# Sequence (P49682 whole entry): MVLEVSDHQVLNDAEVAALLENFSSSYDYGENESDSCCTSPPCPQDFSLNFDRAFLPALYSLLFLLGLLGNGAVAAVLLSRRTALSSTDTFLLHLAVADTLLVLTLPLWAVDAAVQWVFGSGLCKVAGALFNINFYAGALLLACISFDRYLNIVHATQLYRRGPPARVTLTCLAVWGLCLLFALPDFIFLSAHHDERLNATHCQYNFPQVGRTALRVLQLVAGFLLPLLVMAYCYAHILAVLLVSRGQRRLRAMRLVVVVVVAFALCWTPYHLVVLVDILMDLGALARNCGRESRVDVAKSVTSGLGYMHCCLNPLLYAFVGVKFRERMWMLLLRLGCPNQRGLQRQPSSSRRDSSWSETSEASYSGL
# method.summary: Displacement of [125I]-CXCL10 from human recombinant CXCR3 transfected in Flp-In-CHO cell membranes after 60 mins by gamma counting method
All values: log10 IC50 [µM].

Record COc1cc(CN(CC(C)O)C(C)c2ccc3c(c2)CCO3)ccc1OCCN1C(=O)CCC1=O (stereo not drawn) / C-X-C chemokine receptor type 3 (Homo sapiens, UniProt P49682), log10 of IC50 recorded as -1.11

Record COc1cc(CN(Cc2ccc(C(=O)O)cc2)C(C)c2ccc3c(c2)CCO3)ccc1OCCN1C(=O)CCC1=O (stereo not drawn) / C-X-C chemokine receptor type 3 (Homo sapiens, UniProt P49682), log10 of IC50 recorded as -0.92

Record CCCC(NCc1ccc(OCCN2C(=O)CCC2=O)c(OC)c1)c1ccc2c(c1)CCO2 (stereo not drawn) / C-X-C chemokine receptor type 3 (Homo sapiens, UniProt P49682), log10 of IC50 recorded as 0.08

Record Cc1cc(CN(C)C(C)c2ccc3c(c2)CCO3)ccc1OCCN1C(=O)CCC1=O (stereo not drawn) / C-X-C chemokine receptor type 3 (Homo sapiens, UniProt P49682), log10 of IC50 recorded as -0.64

Record `Cc1cc(CN(C[C@H]2CC[C@H](C(=O)O)CC2)[C@@H](C)c2ccc(Cl)cc2)ccc1OCCN1C(=O)CN(C)C1=O` / C-X-C chemokine receptor type 3 (Homo sapiens, UniProt P49682), log10 of IC50 recorded as -1.00

Record CC(c1ccc2c(c1)CCO2)N(C)Cc1ccc(OCCN2C(=O)CCC2=O)c(Cl)c1 (stereo not drawn) / C-X-C chemokine receptor type 3 (Homo sapiens, UniProt P49682), log10 of IC50 recorded as -0.73

Record COc1cc(CN(CC23CCC(C(=O)O)(CC2)CC3)C(C)c2ccc3c(c2)CCO3)ccc1OCCN1C(=O)CCC1=O (stereo not drawn) / C-X-C chemokine receptor type 3 (Homo sapiens, UniProt P49682), log10 of IC50 recorded as -0.65

Record COc1cc(CN(CC2CCCCC2)C(C)c2ccc3c(c2)CCO3)ccc1OCCN1C(=O)CCC1=O (stereo not drawn) / C-X-C chemokine receptor type 3 (Homo sapiens, UniProt P49682), log10 of IC50 recorded as -1.28

Record CCC(c1ccc2c(c1)CCO2)N(CC)Cc1ccc(OCCN2C(=O)CCC2=O)c(OC)c1 (stereo not drawn) / C-X-C chemokine receptor type 3 (Homo sapiens, UniProt P49682), log10 of IC50 recorded as -0.96

Record COc1cc(CN(C)C(C)c2ccc3c(c2)CCO3)ccc1OCCN1C(=O)CCC1=O (stereo not drawn) / C-X-C chemokine receptor type 3 (Homo sapiens, UniProt P49682), log10 of IC50 recorded as -0.39

Record COc1cc(CNC(c2ccc3c(c2)CCO3)C2CCCC2)ccc1OCCN1C(=O)CCC1=O (stereo not drawn) / C-X-C chemokine receptor type 3 (Homo sapiens, UniProt P49682), log10 of IC50 recorded as 0.51

Record COc1cc(CN(C)C(C)c2ccc3c(c2)CCO3)ccc1OCCN1C(=O)CSC1=O (stereo not drawn) / C-X-C chemokine receptor type 3 (Homo sapiens, UniProt P49682), log10 of IC50 recorded as -0.92

Record COc1cc(CN(Cc2ccc(-c3nnn[nH]3)cc2)C(C)c2ccc3c(c2)CCO3)ccc1OCCN1C(=O)CCC1=O (stereo not drawn) / C-X-C chemokine receptor type 3 (Homo sapiens, UniProt P49682), log10 of IC50 recorded as -0.90

Record `COc1cc(CN(Cc2ccc(C(=O)O)cc2)[C@H](C)c2ccc(Cl)cc2)ccc1OCCN1C(=O)CCC1=O` / C-X-C chemokine receptor type 3 (Homo sapiens, UniProt P49682), log10 of IC50 recorded as -0.46

Record `COc1cc(CN(Cc2ccc3c(c2)CCO3)CC(C)C)ccc1OCCN1C(=O)CCC1=O` / C-X-C chemokine receptor type 3 (Homo sapiens, UniProt P49682), log10 of IC50 recorded as -1.15

Record CCC(NCc1ccc(OCCN2C(=O)CCC2=O)c(OC)c1)c1ccc2c(c1)CCO2 (stereo not drawn) / C-X-C chemokine receptor type 3 (Homo sapiens, UniProt P49682), log10 of IC50 recorded as 0.03

Record COc1cc(CN(C)C(CC(C)C)c2ccc3c(c2)CCO3)ccc1OCCN1C(=O)CCC1=O (stereo not drawn) / C-X-C chemokine receptor type 3 (Homo sapiens, UniProt P49682), log10 of IC50 recorded as -0.48

Record COc1cc(CN(C)C(C)c2ccc3c(c2)CCO3)ccc1NCCN1C(=O)CCC1=O (stereo not drawn) / C-X-C chemokine receptor type 3 (Homo sapiens, UniProt P49682), log10 of IC50 recorded as -0.35

* * *

# study.system: C-X-C chemokine receptor type 3 (Homo sapiens, UniProt P49682)
# method.summary: Displacement of [125I]-CXCL10 from human recombinant CXCR3 transfected in Flp-In-CHO cell membranes after 60 mins by gamma counting method
Entries get a class label from measured IC50. See ranges: low value: < 100 nM; medium value: ≥ 100 nM and < 200 nM; high value: ≥ 200 nM

Band for the recorded IC50 of COc1cc(CN(Cc2cccnc2)C(C)c2ccc3c(c2)CCO3)ccc1OCCN1C(=O)CCC1=O (centres undefined) ? medium value

Band for the recorded IC50 of CCC(c1ccc2c(c1)CCO2)N(Cc1ccc(OCCN2C(=O)CCC2=O)c(OC)c1)CC(C)C (centres undefined) ? low value

Band for the recorded IC50 of COc1cc(CNC(C)c2ccc3c(c2)CCO3)ccc1OCCN1C(=O)CCC1=O (centres undefined) ? high value

Band for the recorded IC50 of CCCC(c1ccc2c(c1)CCO2)N(C)Cc1ccc(OCCN2C(=O)CCC2=O)c(OC)c1 (centres undefined) ? medium value

Band for the recorded IC50 of `COc1cc(CN(C[C@H]2CC[C@H](C(=O)OC)CC2)[C@H]2CCc3cc(Cl)ccc32)ccc1OCCN1C(=O)CCC1=O` ? high value

Band for the recorded IC50 of COc1cc(CN(CC(C)C)C(C)c2ccc3c(c2)CCO3)ccc1OCCN1C(=O)CCC1=O (centres undefined) ? low value

Band for the recorded IC50 of COc1cc(CN(C)C(C)c2ccc3c(c2)CCO3)ccc1OCCN1C(=O)CNC1=O (centres undefined) ? high value

* * *

# method.summary: Metabolic stability in human liver microsomes assessed as parent compound remaining in presence of NADPH by LC-MS/MS method
# Type: ADME
Record form. Attribute: Stability. Fill in for each entry.
Field: numeric (%). Do not append units.

The value of Stability measured for the compound COc1cc(CN(Cc2ccc(C(=O)O)cc2)C(C)c2ccc3c(c2)CCO3)ccc1OCCN1C(=O)CCC1=O (stereo not drawn) turned out to be 61

The value of Stability measured for the compound `Cc1cc(CN(C[C@H]2CC[C@H](C(=O)O)CC2)[C@@H](C)c2ccc(Cl)cc2)ccc1OCCN1C(=O)CCC1=O` turned out to be 73

The value of Stability measured for the compound COc1cc(CN(C[C@H]2CC[C@H](C(=O)O)CC2)C(C)c2ccc3c(c2)CCO3)ccc1OCCN1C(=O)CSC1=O (stereo partly drawn) turned out to be 73

The value of Stability measured for the compound COc1cc(CN(C[C@H]2CC[C@H](C(=O)O)CC2)C(C)c2ccc3c(c2)CCO3)ccc1OCCN1C(=O)CCC1=O (stereo partly drawn) turned out to be 98

The value of Stability measured for the compound `COc1cc(CN(C[C@H]2CC[C@H](C(=O)O)CC2)[C@H]2CCc3cc(Cl)ccc32)ccc1OCCN1C(=O)CCC1=O` turned out to be 70

The value of Stability measured for the compound `COc1cc(CN(Cc2ccc3c(c2)CCO3)CC(C)C)ccc1OCCN1C(=O)CCC1=O` turned out to be 7

The value of Stability measured for the compound CC(c1ccc2c(c1)CCO2)N(C)Cc1ccc(OCCN2C(=O)CCC2=O)c(Cl)c1 (stereo not drawn) turned out to be 14

The value of Stability measured for the compound COc1cc(CN(C[C@H]2CC[C@H](C(=O)O)CC2)C(C)c2ccc3c(c2)CCO3)ccc1OCCN1C(=O)COC1=O (stereo partly drawn) turned out to be 88

The value of Stability measured for the compound COc1cc(CN(C)C(C)c2ccc3c(c2)CCO3)ccc1OCCN1C(=O)CN(C)C1=O (stereo not drawn) turned out to be 28

The value of Stability measured for the compound COc1cc(CN(Cc2ccncc2)C(C)c2ccc3c(c2)CCO3)ccc1OCCN1C(=O)CCC1=O (stereo not drawn) turned out to be 41

The value of Stability measured for the compound CC(c1ccc2c(c1)CCO2)N(Cc1ccc(OCCN2C(=O)CCC2=O)c(Cl)c1)C[C@H]1CC[C@H](C(=O)O)CC1 (stereo partly drawn) turned out to be 56

The value of Stability measured for the compound Cc1cc(CN(C)C(C)c2ccc3c(c2)CCO3)ccc1OCCN1C(=O)CCC1=O (stereo not drawn) turned out to be 29

The value of Stability measured for the compound COc1cc(CN(Cc2ccc(F)cc2)C(C)c2ccc3c(c2)CCO3)ccc1OCCN1C(=O)CCC1=O (stereo not drawn) turned out to be 24

The value of Stability measured for the compound COc1cc(CN(C)C(C)c2ccc3c(c2)CCO3)ccc1OCCN1C(=O)CSC1=O (stereo not drawn) turned out to be 4

The value of Stability measured for the compound `COc1cc(CN(C[C@H]2CC[C@H](C(=O)O)CC2)[C@@H](C)c2ccc(Cl)cc2)ccc1OCCn1c(=O)ccn(C)c1=O` turned out to be 62

The value of Stability measured for the compound `COc1cc(CN(C[C@H]2CC[C@H](C(=O)O)CC2)[C@H]2CCc3cc(Cl)ccc32)ccc1CCCN1C(=O)CCC1=O` turned out to be 36

The value of Stability measured for the compound Cc1cc(CN(C[C@H]2CC[C@H](C(=O)O)CC2)C(C)c2ccc3c(c2)CCO3)ccc1OCCN1C(=O)CCC1=O (stereo partly drawn) turned out to be 70

The value of Stability measured for the compound CCC(c1ccc2c(c1)CCO2)N(Cc1ccc(C(=O)O)cc1)Cc1ccc(OCCN2C(=O)CCC2=O)c(OC)c1 (stereo not drawn) turned out to be 60

The value of Stability measured for the compound CCC(c1ccc2c(c1)CCO2)N(Cc1ccc(OCCN2C(=O)CCC2=O)c(OC)c1)CC(C)C (stereo not drawn) turned out to be 19

The value of Stability measured for the compound COc1cc(CN(CCN)C(C)c2ccc3c(c2)CCO3)ccc1OCCN1C(=O)CCC1=O (stereo not drawn) turned out to be 48

The value of Stability measured for the compound COc1cc(CN(CC(C)C)C(C)c2ccc3c(c2)CCO3)ccc1OCCN1C(=O)CCC1=O (stereo not drawn) turned out to be 2

The value of Stability measured for the compound COc1cc(CN(CCCC(=O)O)C(c2ccc3c(c2)CCO3)C2CCCC2)ccc1OCCN1C(=O)CCC1=O (stereo not drawn) turned out to be 92

The value of Stability measured for the compound CCCC(c1ccc2c(c1)CCO2)N(C)Cc1ccc(OCCN2C(=O)CCC2=O)c(OC)c1 (stereo not drawn) turned out to be 9

The value of Stability measured for the compound COc1cc(CN(Cc2ccc3c(c2)CCO3)C(C)c2ccc3c(c2)CCO3)ccc1OCCN1C(=O)CCC1=O (stereo not drawn) turned out to be 28

The value of Stability measured for the compound `COc1cc(CN(C[C@H]2CC[C@H](C(=O)O)CC2)[C@H]2CCc3cc(Cl)ccc32)ccc1SCCN1C(=O)CCC1=O` turned out to be 15

The value of Stability measured for the compound COc1cc(CNC(C)c2ccc3c(c2)CCO3)ccc1OCCN1C(=O)CCC1=O (stereo not drawn) turned out to be 61

The value of Stability measured for the compound COc1cc(CN(C[C@H]2CC[C@H](C(=O)O)CC2)C2CCc3cc(Cl)ccc32)ccc1OCCN1C(=O)CCC1=O (stereo partly drawn) turned out to be 66

The value of Stability measured for the compound CCC(c1ccc2c(c1)CCO2)N(CC)Cc1ccc(OCCN2C(=O)CCC2=O)c(OC)c1 (stereo not drawn) turned out to be 5

The value of Stability measured for the compound COc1cc(CN(Cc2ccc(/C=C/C(=O)O)cc2)C(C)c2ccc3c(c2)CCO3)ccc1OCCN1C(=O)CCC1=O (stereo not drawn) turned out to be 84

The value of Stability measured for the compound COc1cc(CN(Cc2ccc(C(=O)O)cc2)C(c2ccc3c(c2)CCO3)C2CCCC2)ccc1OCCN1C(=O)CCC1=O (stereo not drawn) turned out to be 52

The value of Stability measured for the compound `COc1cc(CN(C[C@H]2CC[C@H](C(=O)O)CC2)[C@@H]2CCc3cc(Cl)ccc32)ccc1OCCN1C(=O)CCC1=O` turned out to be 54

The value of Stability measured for the compound COc1cc(CN(Cc2ccc(-c3nnn[nH]3)cc2)C(C)c2ccc3c(c2)CCO3)ccc1OCCN1C(=O)CCC1=O (stereo not drawn) turned out to be 51

The value of Stability measured for the compound COc1cc(CN(C)C(C)c2ccc3c(c2)CCO3)ccc1OCCN1C(=O)CNC1=O (stereo not drawn) turned out to be 60
